Exercise: for every item that follows, state its recorded Emax.
Target Or System: RORγt (RORγ-LBD chimeric receptor) (Homo sapiens, UniProt P51449)
Construct: host or cells: HEK293T
Sequence (P51449 269-508 limits assumed): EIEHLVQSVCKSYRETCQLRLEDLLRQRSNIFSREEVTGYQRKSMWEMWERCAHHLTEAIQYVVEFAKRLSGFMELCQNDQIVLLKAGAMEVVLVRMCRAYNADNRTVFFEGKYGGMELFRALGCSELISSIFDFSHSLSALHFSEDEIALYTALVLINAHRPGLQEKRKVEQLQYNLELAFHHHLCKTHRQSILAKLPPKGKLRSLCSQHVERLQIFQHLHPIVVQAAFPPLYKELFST
Measurement Notes: Luciferase reporter gene assay of RORγt agonistic activity in HEK293T cells
Type: cell-based
Design: dose or concentration left out as unconfirmed
Assay Setup: HEK-293T

Enquiry: Return reported Emax; argument: CS(=O)(=O)c1ccc(-c2c(Cl)cc(NC(=O)Cc3ccc(S(=O)(=O)CC4CC4)cc3)cc2Cl)cc1
Return: 33.9%

Enquiry: Dear colleague, I am looking for the recorded Emax of the following compound: CS(=O)(=O)c1ccc(C(CO)C(=O)Nc2cc(Cl)c(-c3ccc(S(=O)(=O)C4CC4)cc3)c(Cl)c2)cc1 (single isomer, unassigned) [Example 36]
Return: 71.3%

Next:
Enquiry: Can you look up the measured Emax of CS(=O)(=O)c1ccc(CC(=O)Nc2cc(Cl)c(-c3ccc(S(=O)(=O)C4CC4)cc3)c(Cl)c2)cc1 for me?
Return: 45%
